Source: patent US20060025566A1

For each record, write down the corresponding pKi.
# Subject Of Test: human growth hormone secretagogue receptor (hGHS-R1a) (Homo sapiens, UniProt Q92847)
# Construct: purchased PerkinElmer BioSignal #RBHGHSM, lot#1887; host or cells: HEK-293, stably transfected (membranes)
# Sequence (Q92847 whole entry): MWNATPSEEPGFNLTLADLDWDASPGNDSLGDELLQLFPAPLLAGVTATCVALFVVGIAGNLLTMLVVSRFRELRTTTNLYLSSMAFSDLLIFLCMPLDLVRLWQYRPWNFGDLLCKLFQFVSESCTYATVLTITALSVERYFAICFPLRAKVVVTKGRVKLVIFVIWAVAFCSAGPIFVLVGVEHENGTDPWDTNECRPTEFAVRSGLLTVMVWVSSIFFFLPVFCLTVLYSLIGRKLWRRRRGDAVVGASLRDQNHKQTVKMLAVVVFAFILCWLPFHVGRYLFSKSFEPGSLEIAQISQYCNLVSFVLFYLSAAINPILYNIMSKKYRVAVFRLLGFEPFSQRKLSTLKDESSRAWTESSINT
# Measurement Description: Competitive radioligand binding assay (ghrelin receptor), [125I]-ghrelin displacement on GHS-R/HEK 293 membranes
# Conditions: binding activity at the human ghrelin receptor, [125I]-ghrelin displacement; read-out: Ki
pKi: −log10 of the molar value.

Request the reported pKi associated with C[C@@H]1C(=O)N[C@H](Cc2cc(F)c(F)c(F)c2)C(=O)NCCCc2ccccc2OCCN[C@@H](C2CC2)C(=O)N1C
8.00 to 10.00

// next record CCC(C)C1NCCOc2ccccc2C=CCNC(=O)C(Cc2cccc(OC)c2)NC(=O)C2(CCCC2)NC1=O (stereo not shown)
7.00 to 8.00

// next record C[C@@H]1C(=O)N[C@H](Cc2ccc(F)cc2)C(=O)NCCCc2ccccc2OCCN[C@@H](CN)C(=O)N1C
6.00 to 7.00

// next record O=C1NC/C=C/c2ccccc2OCCN[C@@H](C2CC2)C(=O)NC2(CCCC2)C(=O)N[C@H]1Cc1cccc(Cl)c1
7.00 to 8.00

----------
# Subject Of Test: human growth hormone secretagogue receptor (hGHS-R1a) (Homo sapiens)
# Construct: purchased PerkinElmer BioSignal #RBHGHSM, lot#1887; host or cells: HEK-293, stably transfected (membranes)
# Measurement Description: Competitive radioligand binding assay (ghrelin receptor), [125I]-ghrelin displacement on GHS-R/HEK 293 membranes
# Conditions: [125I]-ghrelin competition, GHS-R/HEK 293 membranes; Table 3A; read-out: Binding Activity at the Human Ghrelin Receptor
# Method: The competitive binding assay at the human growth hormone secretagogue receptor (hGHS-R1a) was carried out analogously to assays described in the literature. Multiscreen Harvest plates-GF/C (Millipore, #MAHFC 1H60) • 4. […] Plates were sealed with TopSeal-A, vortexed gently and incubated at rt for 30 min. […] Results were expressed as counts per minute (cpm). Data were analyzed by GraphPad Prism (GraphPad Software, San Diego, Calif.) using a variable slope non-linear regression analysis. […]
pKi: −log10 of the molar value.
Measurement Kind: pKi

Quick check: pKi on human growth hormone secretagogue receptor (hGHS-R1a) (Homo sapiens), item CCCC1NC(=O)C(C)N(C)C(=O)C(C(C)CC)NCCOc2ccccc2CCCNC1=O (stereo not drawn) ?
6.00 to 7.00

// next record CC[C@@H]1NC(=O)C2(CCCC2)NC(=O)[C@H](CC(C)C)NCCOc2ccccc2C=CCNC1=O (stereo in doubt)
< 5.00

// next record CC(C)C[C@@H]1NCCOc2ccccc2C=CCNC(=O)[C@H](Cc2ccc3ccccc3c2)NC(=O)C2(CCCC2)NC1=O (stereo in doubt)
7.00 to 8.00

// next record CC(C)C[C@@H]1NCCOc2ccccc2C=CCNC(=O)[C@H](Cc2ccc(-c3ccccc3)cc2)NC(=O)C2(CCCC2)NC1=O (stereo in doubt)
6.00 to 7.00

// next record CCC(C)C1NCCOc2ccccc2CCCNC(=O)C(Cc2ccccc2)NC(=O)C2CSCN2C1=O (stereo not drawn)
< 6.00

// next record CC(C)CC1NCCOc2ccccc2C=CCNC(=O)C(Cc2ccccn2)NC(=O)C2(CCCC2)NC1=O (stereo in doubt) [160a]
< 6.00

// next record CCC(C)C1NCCOc2ccccc2CCCNC(=O)C(Cc2ccccc2)NC(=O)C(COC(C)(C)C)NC1=O (stereo not drawn)
5.00 to 6.00

// next record CC[C@@H](C)[C@H]1NC(=O)[C@@H](C)N(C)C(=O)[C@H]([C@@H](C)CC)NCCOc2ccccc2CCCNC1=O
6.00 to 7.00

// next record CC(C)[C@@H]1NCCOc2ccccc2CCCNC(=O)[C@H](Cc2ccccc2)NC(=O)C2(CC2)NC1=O
5.00 to 6.00

// next record CC(C)C1NCCOc2ccccc2CCCNC(=O)C(Cc2ccccc2)NC(=O)C2(CCNCC2)NC1=O (stereo not drawn)
< 5.00

// next record CC[C@H](C)[C@@H]1NCCOc2ccccc2CCCNC(=O)[C@@H]([C@@H](C)CC)NC(=O)[C@@H](C)N(C)C1=O
6.00 to 7.00

// next record CCC(C)C1NCCOc2ccccc2CCCNC(=O)C(Cc2ccccc2)NC(=O)C(CC)N(C)C1=O (stereo not drawn)
6.00 to 7.00
